# folding stability dG per entry
B1: EHEE_rd2_0196 (parent)
chain: TETRTFDSEEEAKKAQKEAEKQGRTVTITRRDDRWEVRFD

# Variants of: B1
# ASSAY TEXT: folding stability dG (cDNA display proteolysis); higher = more stable
# TEST SETTINGS: PBS, room temperature
PROPERTY: folding stability dG

>>> obs_value("K13F")
"3.23 kcal/mol"
>>> obs_value("K21A")
"3.41 kcal/mol"
>>> obs_value("R31E")
"2 kcal/mol"
>>> obs_value("Q22Y")
"2.73 kcal/mol"
>>> obs_value("E20M")
"3.06 kcal/mol"
>>> obs_value("E10R")
"2.28 kcal/mol"
>>> obs_value("D40Q")
"2.92 kcal/mol"
>>> obs_value("R30Q")
"2.81 kcal/mol"
>>> obs_value("T3R")
"2.54 kcal/mol"
>>> obs_value("E20H")
"2.64 kcal/mol"
>>> obs_value("T25A")
"2.83 kcal/mol"
>>> obs_value("T5I")
"3.42 kcal/mol"
>>> obs_value("R24E")
"2 kcal/mol"
>>> obs_value("R30V")
"2.5 kcal/mol"
>>> obs_value("K14I")
"3.07 kcal/mol"
>>> obs_value("T29Q")
"2.59 kcal/mol"
>>> obs_value("E11R")
"1.47 kcal/mol"
>>> obs_value("W35L")
"0.862 kcal/mol"
>>> obs_value("V37F")
"1.02 kcal/mol"
>>> obs_value("T25K")
"3.13 kcal/mol"
>>> obs_value("D7E")
"2.78 kcal/mol"
>>> obs_value("D32P")
"1.75 kcal/mol"
>>> obs_value("F6Q")
"0.251 kcal/mol"
>>> obs_value("E18A")
"2.79 kcal/mol"
>>> obs_value("A15G")
"1.18 kcal/mol"
>>> obs_value("D32E")
"3.07 kcal/mol"
>>> obs_value("K13E")
"2.63 kcal/mol"
>>> obs_value("T5Q")
"2.63 kcal/mol"
